# ASSAY_TARGET: Sodium-dependent dopamine transporter (Rattus norvegicus, UniProt P23977)
# Sequence (P23977 whole entry): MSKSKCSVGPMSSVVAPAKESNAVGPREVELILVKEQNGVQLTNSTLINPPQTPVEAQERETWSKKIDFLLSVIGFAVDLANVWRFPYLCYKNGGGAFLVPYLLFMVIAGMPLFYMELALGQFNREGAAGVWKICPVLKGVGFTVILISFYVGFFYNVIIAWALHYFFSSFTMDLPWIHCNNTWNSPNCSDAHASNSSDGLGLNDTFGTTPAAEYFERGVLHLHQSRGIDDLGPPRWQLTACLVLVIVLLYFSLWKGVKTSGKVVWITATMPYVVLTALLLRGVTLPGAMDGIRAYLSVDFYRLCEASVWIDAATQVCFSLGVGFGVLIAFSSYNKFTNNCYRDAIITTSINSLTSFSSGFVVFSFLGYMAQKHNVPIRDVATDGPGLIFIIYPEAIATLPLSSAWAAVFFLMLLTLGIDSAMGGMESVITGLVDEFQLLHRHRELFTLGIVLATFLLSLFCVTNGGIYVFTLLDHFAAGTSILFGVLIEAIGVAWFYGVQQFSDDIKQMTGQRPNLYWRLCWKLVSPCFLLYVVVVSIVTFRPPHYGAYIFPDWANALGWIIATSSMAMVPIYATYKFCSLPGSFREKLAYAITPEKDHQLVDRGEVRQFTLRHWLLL
# METHOD_NOTES: Inhibition of rat DAT
READOUT_TYPE: pIC50
The quantity pIC50 is defined as the negative base-10 logarithm of the molar concentration.

Q: Could you tell me which pIC50 is on file for NC(=O)C[S+]([O-])Cc1ccccc1-c1ccc(Cl)cc1 (racemic) ?
A: 6.22

---

# ASSAY_TARGET: UniProt Q63380
# Sequence (Q63380 whole entry): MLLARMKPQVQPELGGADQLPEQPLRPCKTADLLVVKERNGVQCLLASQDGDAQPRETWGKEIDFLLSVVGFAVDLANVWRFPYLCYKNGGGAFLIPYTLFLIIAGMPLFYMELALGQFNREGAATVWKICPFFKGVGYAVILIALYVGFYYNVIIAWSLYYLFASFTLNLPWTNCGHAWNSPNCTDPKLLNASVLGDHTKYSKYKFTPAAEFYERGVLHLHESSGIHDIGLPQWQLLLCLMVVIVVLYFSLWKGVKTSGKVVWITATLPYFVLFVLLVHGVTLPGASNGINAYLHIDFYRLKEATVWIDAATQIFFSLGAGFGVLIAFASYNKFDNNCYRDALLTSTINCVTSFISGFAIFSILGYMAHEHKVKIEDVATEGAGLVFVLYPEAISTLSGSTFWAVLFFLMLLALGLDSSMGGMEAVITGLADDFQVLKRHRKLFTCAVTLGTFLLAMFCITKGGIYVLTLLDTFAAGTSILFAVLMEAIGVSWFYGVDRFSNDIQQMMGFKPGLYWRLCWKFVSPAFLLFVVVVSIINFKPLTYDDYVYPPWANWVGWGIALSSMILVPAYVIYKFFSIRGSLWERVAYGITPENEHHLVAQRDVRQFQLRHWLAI
# METHOD_NOTES: Inhibition of rat NET-mediated norepinephrine reuptake
READOUT_TYPE: pIC50
Entry type: numeric. Quantity: pIC50, the -log10 of concentration in molar units.

Q: Form field: reported pIC50 of NC(=O)C[S+]([O-])Cc1ccccc1-c1ccc(Cl)cc1 (racemic)
A: 5.00
